experiment: Maximum absorption wavelength in water (λmax); format: physicochemical
Kindly supply the reported maximum absorption wavelength in water (λmax) values for the records listed here.
Output spec: scalar in nm, unitless text.

Entry under test: COc1ccc(N=Nc2c(S(=O)(=O)O)cc3cc(N=Nc4c(S(=O)(=O)O)cc5cc(S(=O)(=O)O)c(N=Nc6ccc7cc(S(=O)(=O)O)c(N=Nc8cc(S(=O)(=O)O)ccc8S(=O)(=O)O)c(O)c7c6)c(N)c5c4O)ccc3c2O)c(S(=O)(=O)O)c1 . Its maximum absorption wavelength in water (λmax) was 646

Entry under test: COc1ccc(N=Nc2c(S(=O)(=O)O)cc3c(S(=O)(=O)O)c(N=Nc4c(S(=O)(=O)O)cc5cc(S(=O)(=O)O)c(N=Nc6ccc7c(O)c(N=Nc8ccc(OC)cc8S(=O)(=O)O)c(S(=O)(=O)O)cc7c6S(=O)(=O)O)c(O)c5c4N)ccc3c2O)c(S(=O)(=O)O)c1 . Its maximum absorption wavelength in water (λmax) was 559

Entry under test: Nc1c(N=Nc2ccc3cc(S(=O)(=O)O)c(N=Nc4ccccc4S(=O)(=O)O)c(O)c3c2)c(S(=O)(=O)O)cc2cc(S(=O)(=O)O)c(N=Nc3ccc4cc(S(=O)(=O)O)c(N=Nc5ccccc5S(=O)(=O)O)c(O)c4c3)c(O)c12 . Its maximum absorption wavelength in water (λmax) was 660

Entry under test: COc1ccc(N=Nc2c(S(=O)(=O)O)cc3c(S(=O)(=O)O)c(N=Nc4c(S(=O)(=O)O)cc5cc(S(=O)(=O)O)c(N=Nc6ccc7c(O)c(N=Nc8ccccc8S(=O)(=O)O)c(S(=O)(=O)O)cc7c6)c(O)c5c4N)ccc3c2O)c(S(=O)(=O)O)c1 . Its maximum absorption wavelength in water (λmax) was 645

Entry under test: COc1ccc(N=Nc2c(S(=O)(=O)O)cc3cc(N=Nc4c(S(=O)(=O)O)cc5cc(S(=O)(=O)O)c(N=Nc6ccc7cc(S(=O)(=O)O)c(N=Nc8ccc(OC)cc8S(=O)(=O)O)c(O)c7c6)c(N)c5c4O)ccc3c2O)c(S(=O)(=O)O)c1 . Its maximum absorption wavelength in water (λmax) was 647

Entry under test: COc1ccc(N=Nc2c(S(=O)(=O)O)cc3cc(N=Nc4c(S(=O)(=O)O)cc5cc(S(=O)(=O)O)c(N=Nc6ccc7cc(S(=O)(=O)O)c(N=Nc8ccccc8S(=O)(=O)O)c(O)c7c6)c(N)c5c4O)ccc3c2O)c(S(=O)(=O)O)c1 . Its maximum absorption wavelength in water (λmax) was 650

Entry under test: COc1ccc(N=Nc2c(S(=O)(=O)O)cc3cc(N=Nc4c(S(=O)(=O)O)cc5cc(S(=O)(=O)O)c(N=Nc6ccc7cc(S(=O)(=O)O)c(N=Nc8ccc([N+](=O)[O-])cc8S(=O)(=O)O)c(O)c7c6)c(N)c5c4O)ccc3c2O)c(S(=O)(=O)O)c1 . Its maximum absorption wavelength in water (λmax) was 652

Entry under test: COc1ccc(N=Nc2c(S(=O)(=O)O)cc3cc(N=Nc4c(S(=O)(=O)O)cc5cc(S(=O)(=O)O)c(N=Nc6cc7c(O)c(N=Nc8ccc(OC)cc8S(=O)(=O)O)c(S(=O)(=O)O)cc7cc6S(=O)(=O)O)c(N)c5c4O)ccc3c2O)c(S(=O)(=O)O)c1 . Its maximum absorption wavelength in water (λmax) was 657

* * *

test: Solubility in water of the dye compound; type: physicochemical
Kindly supply the reported solubility values for the records listed here.

Entry under test: COc1ccc(N=Nc2c(S(=O)(=O)O)cc3cc(N=Nc4c(S(=O)(=O)O)cc5cc(S(=O)(=O)O)c(N=Nc6ccc7cc(S(=O)(=O)O)c(N=Nc8cc(S(=O)(=O)O)ccc8S(=O)(=O)O)c(O)c7c6)c(N)c5c4O)ccc3c2O)c(S(=O)(=O)O)c1 . Its solubility was ≥ 100 mg/mL

Entry under test: COc1ccc(N=Nc2c(S(=O)(=O)O)cc3cc(N=Nc4c(S(=O)(=O)O)cc5cc(S(=O)(=O)O)c(N=Nc6ccc7cc(S(=O)(=O)O)c(N=Nc8ccc([N+](=O)[O-])cc8S(=O)(=O)O)c(O)c7c6)c(N)c5c4O)ccc3c2O)c(S(=O)(=O)O)c1 . Its solubility was ≥ 100 mg/mL

Entry under test: COc1ccc(N=Nc2c(S(=O)(=O)O)cc3c(S(=O)(=O)O)c(N=Nc4c(S(=O)(=O)O)cc5cc(S(=O)(=O)O)c(N=Nc6ccc7c(O)c(N=Nc8ccccc8S(=O)(=O)O)c(S(=O)(=O)O)cc7c6)c(O)c5c4N)ccc3c2O)c(S(=O)(=O)O)c1 . Its solubility was ~100 mg/mL

Entry under test: COc1ccc(N=Nc2c(S(=O)(=O)O)cc3cc(N=Nc4c(S(=O)(=O)O)cc5cc(S(=O)(=O)O)c(N=Nc6ccc7cc(S(=O)(=O)O)c(N=Nc8ccc(OC)cc8S(=O)(=O)O)c(O)c7c6)c(N)c5c4O)ccc3c2O)c(S(=O)(=O)O)c1 . Its solubility was ~100 mg/mL
